B1: USP39 (parent)
chain: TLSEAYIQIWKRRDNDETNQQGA

Variants of: B1
Assay Notes: protein stability index of a GFP-peptide fusion (GPS, HEK-293T) (PSI 1-6); higher = more stable;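 also: lentivirally expressed fusions sorted by FACS into six bins by GFP to DsRed ratio, PSI derived from sequencing read proportions per bin multiplied by bin number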
Conditions: c terminus: native
Decide by protein stability index: equal to or exceeding 3 means class 1, less means class 0.

Quick check: does "A23E" have protein stability index greater than or equal to 3? class 1

And what about the variant "D16Y" ? class 0

And what about the variant "Q21T" ? class 1

And what about the variant "A23Y" ? class 1

And what about the variant "I7P" ? class 1

And what about the variant "S3R" ? class 0

And what about the variant "D14I" ? class 0

And what about the variant "R12P" ? class 0

And what about the variant "E4T" ? class 0

And what about the variant "N15T" ? class 0

And what about the variant "I7L" ? class 0

And what about the variant "Q20W" ? class 0

And what about the variant "W10D" ? class 1

And what about the variant "Q20E" ? class 0

And what about the variant "A5T" ? class 0

And what about the variant "Y6E" ? class 0

And what about the variant "I9G" ? class 0

And what about the variant "S3Q" ? class 0

And what about the variant "L2A" ? class 0

And what about the variant "I9Y" ? class 1
